- assayed target: T1, factor VIIIa A1/A3C1C2 dimer, Glu1984Val (human, UniProt P00451 20-391; P00451 1709-2351)
- T1 sequence 1: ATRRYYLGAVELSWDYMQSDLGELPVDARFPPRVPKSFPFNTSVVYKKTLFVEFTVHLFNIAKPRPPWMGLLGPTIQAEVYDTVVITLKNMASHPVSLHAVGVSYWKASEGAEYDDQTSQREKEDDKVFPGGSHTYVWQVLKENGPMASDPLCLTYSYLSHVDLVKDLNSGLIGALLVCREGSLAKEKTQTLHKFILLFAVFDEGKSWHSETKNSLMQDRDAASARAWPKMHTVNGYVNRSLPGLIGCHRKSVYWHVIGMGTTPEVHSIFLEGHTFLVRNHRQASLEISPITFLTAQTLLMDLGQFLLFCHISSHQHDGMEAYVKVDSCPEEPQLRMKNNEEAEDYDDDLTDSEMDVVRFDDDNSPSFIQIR
- T1 sequence 2: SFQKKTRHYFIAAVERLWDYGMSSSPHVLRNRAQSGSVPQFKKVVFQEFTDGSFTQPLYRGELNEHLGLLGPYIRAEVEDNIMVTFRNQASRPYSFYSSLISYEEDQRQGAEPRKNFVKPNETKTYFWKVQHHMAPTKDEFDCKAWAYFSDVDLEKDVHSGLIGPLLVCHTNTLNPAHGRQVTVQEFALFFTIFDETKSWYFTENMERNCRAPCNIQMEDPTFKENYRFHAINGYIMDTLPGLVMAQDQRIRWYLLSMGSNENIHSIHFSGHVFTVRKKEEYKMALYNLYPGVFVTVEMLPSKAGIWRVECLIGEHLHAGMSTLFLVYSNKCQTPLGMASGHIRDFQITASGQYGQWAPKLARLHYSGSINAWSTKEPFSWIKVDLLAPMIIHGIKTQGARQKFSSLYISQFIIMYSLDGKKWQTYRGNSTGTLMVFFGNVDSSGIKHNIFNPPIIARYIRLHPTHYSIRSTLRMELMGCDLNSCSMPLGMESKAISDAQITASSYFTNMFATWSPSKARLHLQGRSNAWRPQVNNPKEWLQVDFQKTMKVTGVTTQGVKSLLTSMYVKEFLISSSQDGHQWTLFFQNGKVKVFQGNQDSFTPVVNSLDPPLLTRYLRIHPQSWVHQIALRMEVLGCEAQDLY
- assay comment: cell-based or functional assay
measure name: Decay rate relative to wild type, Factor VIIIa (1.5 nM, factor IXa absent)

Reported Decay rate relative to wild type, Factor VIIIa (1.5 nM, factor IXa absent) for factor VIIIa A2 subunit, Glu665Ala (other) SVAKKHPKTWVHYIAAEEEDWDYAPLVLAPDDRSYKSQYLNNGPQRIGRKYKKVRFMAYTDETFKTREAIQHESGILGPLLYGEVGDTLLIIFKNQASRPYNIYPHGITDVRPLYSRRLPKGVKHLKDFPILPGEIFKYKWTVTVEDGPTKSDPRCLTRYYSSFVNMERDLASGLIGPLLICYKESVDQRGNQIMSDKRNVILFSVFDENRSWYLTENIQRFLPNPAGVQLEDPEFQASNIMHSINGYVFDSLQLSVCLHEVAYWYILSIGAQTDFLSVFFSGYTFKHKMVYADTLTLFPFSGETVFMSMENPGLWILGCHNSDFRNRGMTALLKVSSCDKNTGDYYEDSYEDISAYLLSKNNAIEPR was 0.9 relative to wild type
